biological target: human GPR40 (Homo sapiens); experiment: GPR40 calcium flux assay, HEK293 cells stably expressing human GPR40; details: transfected HEK293 cells stably expressing human GPR40, Fluo 8 dye, read-out: hGPR40 Ca2+ Assay EC50
Sequence (O14842 whole entry): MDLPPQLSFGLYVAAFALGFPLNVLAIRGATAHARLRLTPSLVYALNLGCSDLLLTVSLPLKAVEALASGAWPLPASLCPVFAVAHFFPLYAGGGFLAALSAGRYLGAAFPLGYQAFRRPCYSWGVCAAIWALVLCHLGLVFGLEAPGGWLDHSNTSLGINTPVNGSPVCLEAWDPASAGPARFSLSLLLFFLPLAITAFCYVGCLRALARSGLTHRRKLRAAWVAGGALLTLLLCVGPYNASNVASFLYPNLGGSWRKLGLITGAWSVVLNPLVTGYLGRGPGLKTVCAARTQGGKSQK
observable: pEC50
Give bare numbers, as −log10 of the molar value.

COc1ccc(F)c([C@]2(O)CC[C@@H](COc3cccc([C@@H](CC(=O)O)C4CC4)c3)CC2)c1 [Cpd 3] ... 7.61
COc1cc([C@H]2CC[C@@H](COc3cc(C(CC(=O)O)C4CC4)ccn3)CC2)c(F)cn1 (stereo partly shown) [Cpd 7] ... 7.46
COc1ccc(F)c([C@H]2CC[C@@H](COc3cc(C(CC(=O)O)C4CC4)ccn3)CC2)c1 (stereo partly shown) [Cpd 5] ... 7.12
COc1cc([C@H]2CC[C@H](COc3cc([C@@H](CC(=O)O)C4CC4)ccn3)CC2)c(F)cn1 [Cpd 25] ... 8.28
COc1cc([C@H]2CC[C@H](COc3ccnc(C(CC(=O)O)C4CC4)c3)CC2)c(F)cn1 (stereo partly shown) [Cpd 31] ... 7.58

Each molecule below has a reported value. Please supply its pEC50.
1. COc1ccc(F)c([C@H]2CC[C@@H](COc3ccnc(C(CC(=O)O)C4CC4)c3)CC2)c1 (stereo partly shown) [Cpd 35]
2. CC(F)(C(=O)O)[C@H](c1cccc(OCC2CCC(c3cc(F)ncc3F)CC2)c1)C1CC1 (mixture of isomers) [Cpd 67]
3. COc1ccc(F)c([C@H]2CC[C@H](COc3cccc([C@H](C4CC4)C(C)(F)C(=O)O)c3)CC2)c1 (stereo partly shown) [Cpd 58]
4. CCOc1cc([C@H]2CC[C@@H](COc3cc([C@@H](CC(=O)O)C4CC4)ccn3)CC2)c(F)cn1 [Cpd 48]
5. COc1ccc(F)c([C@]2(O)CC[C@H](COc3cccc([C@@H](CC(=O)O)C4CC4)c3)CC2)c1 [Cpd 6]
6. COc1cc([C@H]2CC[C@H](COc3cccc([C@H](C4CC4)[C@@](C)(F)C(=O)O)c3)CC2)c(F)cn1 [Cpd 62]

Output line:
1. 5.74
2. 8.77
3. 9.52
4. 6.67
5. 6.42
6. 9.60

Return reported pEC50 values for all items listed beneath this line.
1. COc1cc([C@H]2CC[C@H](COc3cncc(C(CC(=O)O)C4CC4)c3)CC2)c(F)cn1 (stereo partly shown) [Cpd 22]
2. COc1cc(C2CCC(COc3cccc([C@H](C4CC4)C(C)(F)C(=O)O)c3)CC2)ccn1 (mixture of isomers) [Cpd 69]
3. COc1ccc(F)c([C@H]2CC[C@@H](COc3cccc([C@H](C4CC4)[C@H](C)C(=O)O)c3)CC2)c1 [Cpd 53]

Output line:
[7.75, 8.92, 8.70]

Required: pEC50, one value per molecule below.
1. COc1ccc(F)c([C@H]2CC[C@H](COc3cccc([C@H](C4CC4)[C@](C)(F)C(=O)O)c3)CC2)c1 [Cpd 60]
2. COc1cncc(C2CCC(COc3cc([C@@H](CC(=O)O)C4CC4)ccn3)CC2)n1 (stereo partly shown) [Cpd 46]
3. COc1ccc(F)c([C@H]2CC[C@H](CCc3cccc([C@@H](CC(=O)O)C4CC4)c3)CC2)c1 [Cpd 36]

Output line:
[8.22, 5.24, 8.77]

Provide the reported pEC50 of each entry below, same order.
1. COc1ccc(F)c([C@]2(OC)CC[C@@H](COc3cccc([C@@H](CC(=O)O)C4CC4)c3)CC2)c1 [Cpd 11]
2. COc1ccc(F)c([C@H]2CC[C@H](COc3cc(C(CC(=O)O)C4CC4)ccn3)CC2)c1 (stereo partly shown) [Cpd 4]
3. COc1ccc(F)c([C@H]2CC[C@@H](COc3cc([C@H](CC(=O)O)C4CC4)ccn3)CC2)c1 [Cpd 41]

Output line:
1: 8.68; 2: 9.15; 3: 7.74

Would you mind listing pEC50 for each of the following molecules?
1. COc1ccc(F)c([C@H]2CC[C@H](COc3cccc(C(CC(=O)O)C4CC4)c3)CC2)c1 (mixture of isomers) [Cpd 56]
2. COc1cc([C@H]2CC[C@@H](COc3cccc([C@@H](CC(=O)O)C4CC4)c3)CC2)c(F)cn1 [Cpd 10]
3. COc1ccc(F)c([C@H]2CC[C@H](COc3cccc([C@H](CC(=O)O)C4CC4)c3)CC2)c1 [Cpd 38]
4. COc1cc([C@H]2CC[C@H](COc3cccc(C(CC(=O)O)C4CC4)n3)CC2)c(F)cn1 (stereo partly shown) [Cpd 15]
5. COc1ccc(F)c([C@H]2CC[C@H](/C=C/c3cccc([C@@H](CC(=O)O)C4CC4)c3)CC2)c1 [Cpd 28]
6. COc1ccc(F)c(C2CCC(OCc3cccc([C@H](C4CC4)C(C)(F)C(=O)O)c3)CC2)c1 (stereo partly shown) [Cpd 78]
7. COc1cc([C@H]2CC[C@H](COc3cc(C(CC(=O)O)C4CC4)ccn3)CC2)c(F)cn1 (stereo partly shown) [Cpd 8]
8. CCc1ccc(Cl)c(C2CCC(COc3cccc([C@H](C4CC4)C(C)(F)C(=O)O)c3)CC2)c1 (stereo partly shown) [Cpd 65]

Output line:
8.52
7.57
8.21
6.86
8.59
8.66
9.30
9.23

Count: 2. Required value per item: pEC50.
1. C[C@](F)(C(=O)O)[C@H](c1cccc(OCC2CCC(c3cc(F)ccc3F)CC2)c1)C1CC1 (stereo partly shown) [Cpd 75]
2. COc1ccc(F)c([C@H]2CC[C@H](COc3cc([C@H](C4CC4)C(C)(F)C(=O)O)ccn3)CC2)c1 (stereo partly shown) [Cpd 79]

Output line:
1: 9.36; 2: 7.89

Input line: Give me measured pEC50, please, for this molecule: COc1ccc(F)c([C@H]2CC[C@H](COc3cccc(C(CC(=O)O)C4CC4)n3)CC2)c1 (mixture of isomers) [Cpd 13]
Output line: 7.49
